Biological target: T1, human CD3 expressed on cells (Jurkat cells; human CD4 T cells) (human, UniProt P07766 23-207)
T1 construct: whole, on cells; also called human CD3 receptor on T cell surface; human CD3 expressing cells (Jurkat cells)
T1 sequence (P07766 23-207): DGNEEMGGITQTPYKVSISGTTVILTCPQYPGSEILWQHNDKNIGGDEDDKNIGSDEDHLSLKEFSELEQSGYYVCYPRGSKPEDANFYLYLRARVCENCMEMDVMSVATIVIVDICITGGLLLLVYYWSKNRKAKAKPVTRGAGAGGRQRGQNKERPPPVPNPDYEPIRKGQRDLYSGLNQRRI
Test: flow cytometry on Jurkat cells
Description: Various concentrations of testing mAbs were added to Jurkat cells, and then the binding activity of mAbs onto the surface of cells was detected by 2nd antibody-FITC. OKT3 was used as the positive control. The stained cells were analyzed by using a BD Biosciences FACSCanto II instrument and Flow Jo Version software. The binding EC₅₀ were calculated by using GraphPad Prism software equation: Nonlinear regression (curve fit)—log (agonist) vs. response-Variable slope.
# MFI (FACS) listing for each entry below
test readout: MFI (FACS) (MFI)

binder="WBP3311_2.400.5 (antibody, V domains shown, Mouse monoclonal antibody from hybridoma; also called W3311-2.400.5) VH: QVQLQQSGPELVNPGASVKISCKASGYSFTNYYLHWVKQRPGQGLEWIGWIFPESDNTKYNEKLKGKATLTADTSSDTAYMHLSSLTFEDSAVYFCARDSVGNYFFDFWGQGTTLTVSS VL: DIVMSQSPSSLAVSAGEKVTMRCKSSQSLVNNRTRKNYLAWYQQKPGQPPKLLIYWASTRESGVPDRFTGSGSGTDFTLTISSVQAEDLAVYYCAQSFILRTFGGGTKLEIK" reading_unit=MFI test_value=2740
binder="WBP3311_2.166.48 (antibody, IgG2a, V domains shown, Mouse monoclonal antibody from hybridoma; also called W3311-2.166.48; W3311_2.166.48) VH: QVQLQQSGPELVKPGASVKIACKASGYSFTTYYIHWVKQRPGQGLEWIGWIFPGNDNIKYSEKFKGKATLTADTSSSTAYMQLSSLTSEDSAVYFCAIDSVSIYYFDYWGQGTTLTVSS VL: DIVMSQSPSSLAVSAGEKVTMSCKSSQSLLNSRTRKNYLAWYQQKPGQSPKLLIYWASTRKSGVPDRFTGSGSGTDFTLTINSVQAEDLAVYYCTQSFILRTFGGGTKLEIK" reading_unit=MFI test_value=2140
binder="WBP3311_2.482.5 (antibody, V domains shown, Mouse monoclonal antibody from hybridoma; also called W3311-2.482.5) VH: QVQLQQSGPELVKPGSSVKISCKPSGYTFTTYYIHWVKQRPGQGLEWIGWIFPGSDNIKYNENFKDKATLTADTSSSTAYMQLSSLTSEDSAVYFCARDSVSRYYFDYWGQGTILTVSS VL: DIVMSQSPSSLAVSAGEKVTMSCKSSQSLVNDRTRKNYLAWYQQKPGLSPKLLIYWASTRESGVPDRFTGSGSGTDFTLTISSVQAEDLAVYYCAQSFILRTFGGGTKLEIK" reading_unit=MFI test_value=2390

Hello, the source for this data is patent US20200299384A1, in case you need it.
